Tested on: NCI-H1944
Assay: relative viability (nuclei count vs DMSO), 5 days (fraction); higher = more cells survive
Details: first compound 0.000632 µM

molecule	target.desc	relative viability
CC(=O)O[C@@]12CO[C@@H]1C[C@H](O)[C@@]1(C)C(=O)[C@H](O)C3=C(C)[C@@H](OC(=O)[C@H](O)[C@@H](NC(=O)OC(C)(C)C)c4ccccc4)C[C@@](O)([C@@H](OC(=O)c4ccccc4)[C@H]21)C3(C)C [Docetaxel] + Cc1nc(NC(=O)N2CCC[C@H]2C(N)=O)sc1-c1ccnc(C(C)(C)C(F)(F)F)c1 [Alpelisib] (partner 2 µM)	NCI-H1944	0.761
CC(=O)O[C@@]12CO[C@@H]1C[C@H](O)[C@@]1(C)C(=O)[C@H](O)C3=C(C)[C@@H](OC(=O)[C@H](O)[C@@H](NC(=O)OC(C)(C)C)c4ccccc4)C[C@@](O)([C@@H](OC(=O)c4ccccc4)[C@H]21)C3(C)C [Docetaxel] + CC(=O)Nc1cccc(-n2c(=O)n(C3CC3)c(=O)c3c(Nc4ccc(I)cc4F)n(C)c(=O)c(C)c32)c1 [Trametinib] (partner 0.02 µM)	NCI-H1944	0.371
CC(=O)O[C@@]12CO[C@@H]1C[C@H](O)[C@@]1(C)C(=O)[C@H](O)C3=C(C)[C@@H](OC(=O)[C@H](O)[C@@H](NC(=O)OC(C)(C)C)c4ccccc4)C[C@@](O)([C@@H](OC(=O)c4ccccc4)[C@H]21)C3(C)C [Docetaxel] + CS(=O)(=O)N1CCN(Cc2cc3nc(-c4cccc5[nH]ncc45)nc(N4CCOCC4)c3s2)CC1 [Pictilisib] (partner 1 µM)	NCI-H1944	0.368
CC(=O)O[C@@]12CO[C@@H]1C[C@H](O)[C@@]1(C)C(=O)[C@H](O)C3=C(C)[C@@H](OC(=O)[C@H](O)[C@@H](NC(=O)OC(C)(C)C)c4ccccc4)C[C@@](O)([C@@H](OC(=O)c4ccccc4)[C@H]21)C3(C)C [Docetaxel] + Nc1nc2[nH]cc(CCc3ccc(C(=O)N[C@@H](CCC(=O)O)C(=O)O)cc3)c2c(=O)[nH]1 [Pemetrexed] (partner 0.2 µM)	NCI-H1944	0.568

Data credit: the supplement of paper PMC10307832
